Source listed as paper PMC8467962.

Target: MMP-2 (Homo sapiens)
Construct: the catalytic domains of the corresponding MMP were incubated in triplicate; purchased Enzo Life Science International, Inc
Sequence (P08253 110-446 limits assumed): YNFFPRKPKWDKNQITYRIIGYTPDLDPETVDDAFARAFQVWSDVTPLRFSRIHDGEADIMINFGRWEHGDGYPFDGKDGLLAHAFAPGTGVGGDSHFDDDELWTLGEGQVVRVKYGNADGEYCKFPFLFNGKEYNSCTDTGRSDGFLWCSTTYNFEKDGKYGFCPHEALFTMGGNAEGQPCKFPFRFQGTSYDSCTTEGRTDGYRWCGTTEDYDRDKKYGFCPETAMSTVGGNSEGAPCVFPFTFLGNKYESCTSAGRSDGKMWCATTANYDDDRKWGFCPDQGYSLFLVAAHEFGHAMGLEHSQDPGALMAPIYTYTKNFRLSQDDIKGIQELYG
Test: MMP inhibition assay (MMP Inhibitor Profiling Kit, thiopeptide substrate), MMP-2
Format: biochemical
Settings: catalytic domain, 37 °C, pH 7.5
Method: MMP activity measurements were performed using an MMP Inhibitor Profiling Kit purchased from Enzo Life Science International, Inc. (Farmingdale, NY, USA), and following the manufacturer’s protocol with slight modifications. Proteolytic activity was measured using a thiopeptide substrate (Ac-PLG-[2-mercapto-4-methylpentanoyl]-LG-OC2H5) where the MMP cleavage site peptide bond has been replaced by a thioester bond. […]
pIC50: −log10 of the molar value.
experimental-endpoint: pIC50

compound	readout-relation	result-number
Cc1ccc2c(c1)C(=O)N(CCc1cn(-c3ccc(S(=O)(=O)N[C@H](Cc4ccccc4)C(=O)NO)cc3)nn1)C2=O [Compound 10e]	=	8.54
O=C(O)[C@@H](Cc1ccccc1)NS(=O)(=O)c1ccc(-n2cc(CCn3nc4c(Br)c(Br)c(Br)c(Br)c4n3)nn2)cc1 [Compound 9d]	<	7.00
O=C(NO)[C@@H](Cc1ccccc1)NS(=O)(=O)c1ccc(-n2cc(CCN3C(=O)c4ccccc4C3=O)nn2)cc1 [Compound 10a]	=	8.51
O=C(NO)[C@@H](Cc1ccccc1)NS(=O)(=O)c1ccc(-n2cc(CCn3nc4ccccc4n3)nn2)cc1 [Compound 9a]	=	8.47
O=C(NO)C1(S(=O)(=O)c2ccc(-n3cc(CCn4nc5ccccc5n4)nn3)cc2)CCOCC1 [Compound 9e]	=	7.99
O=C(O)[C@H](Cc1ccccc1)NS(=O)(=O)c1ccc(-n2cc(CCn3nc4ccccc4n3)nn2)cc1 [Compound 9c]	<	7.00
O=C(O)[C@@H](Cc1ccccc1)NS(=O)(=O)c1ccc(-n2cc(CCn3nc4ccccc4n3)nn2)cc1 [Compound 9b]	<	7.00

====

Listed below: pIC50 values for each entry.
target: MMP-2 (Homo sapiens); construct: the catalytic domains of the corresponding MMP were incubated in triplicate; purchased Enzo Life Science International, Inc; test: MMP inhibition assay (MMP Inhibitor Profiling Kit, thiopeptide substrate), MMP-2; assay type: biochemical; settings: catalytic domain, 37 °C, pH 7.5
pIC50: −log10 of the molar value.

compound	pIC50
O=C(NO)[C@@H](Cc1ccccc1)NS(=O)(=O)c1ccc(-n2cc(CCN3C(=O)c4cc(Br)c(Br)cc4C3=O)nn2)cc1 [Compound 10b]	7.82
O=C(NO)[C@@H](Cc1ccccc1)NS(=O)(=O)c1ccc(-n2cc(CCN3C(=O)c4c(Br)c(Br)c(Br)c(Br)c4C3=O)nn2)cc1 [Compound 10c]	7.77
O=C(NO)[C@@H](Cc1ccccc1)NS(=O)(=O)c1ccc(-n2cc(CCN3C(=O)c4ccc(Br)cc4C3=O)nn2)cc1 [Compound 10d]	7.85

====

molecular target: recombinantly expressed catalytic domain of MMP-13 (Homo sapiens); construct: containing the catalytic site (amino acid residues −104 to 274); TEV cleavage site (C); 6xHis (C); assay: Enzymatic activity of recombinantly expressed MMP-13 catalytic domain, dose response of BiPS; conditions: recombinantly expressed catalytic domain of MMP-13, after refolding

structure-notation	experimental-target	IC50, nM
O=C(NO)[C@@H](Cc1ccccc1)NS(=O)(=O)c1ccc(-c2ccccc2)cc1	recombinantly expressed catalytic domain of MMP-13 (Homo sapiens)	1.44

====

target: MMP-10 (Homo sapiens); construct: the catalytic domains of the corresponding MMP were incubated in triplicate; purchased Enzo Life Science International, Inc; assay: MMP inhibition assay (MMP Inhibitor Profiling Kit, thiopeptide substrate), MMP-10; assay type: biochemical; details: panel of MMPs
Sequence (P09238 99-263 limits assumed): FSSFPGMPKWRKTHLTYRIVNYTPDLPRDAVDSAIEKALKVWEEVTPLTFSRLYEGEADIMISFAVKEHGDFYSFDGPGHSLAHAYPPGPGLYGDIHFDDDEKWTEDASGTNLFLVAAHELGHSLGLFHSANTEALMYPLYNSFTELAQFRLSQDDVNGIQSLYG
pIC50: −log10 of the molar value.

compound	pIC50
O=C(NO)[C@@H](Cc1ccccc1)NS(=O)(=O)c1ccc(-n2cc(CCn3nc4ccccc4n3)nn2)cc1 [Compound 9a]	6.55

====

molecular target: MMP-12 (Homo sapiens); construct: the catalytic domains of the corresponding MMP were incubated in triplicate; purchased Enzo Life Science International, Inc; assay: MMP inhibition assay (MMP Inhibitor Profiling Kit, thiopeptide substrate), MMP-12; type: biochemical; conditions: panel of MMPs
Sequence (P39900 106-263 limits assumed): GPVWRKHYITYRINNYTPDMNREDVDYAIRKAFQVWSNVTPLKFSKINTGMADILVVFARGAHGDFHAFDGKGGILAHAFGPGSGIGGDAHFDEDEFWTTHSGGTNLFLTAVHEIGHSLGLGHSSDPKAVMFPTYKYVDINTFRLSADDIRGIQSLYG
pIC50: −log10 of the molar value.

structure-notation	pIC50
O=C(NO)[C@@H](Cc1ccccc1)NS(=O)(=O)c1ccc(-n2cc(CCn3nc4ccccc4n3)nn2)cc1	8.43

====

Target: MMP-13 (Homo sapiens, UniProt P45452)
Construct: the catalytic domains of the corresponding MMP were incubated in triplicate; purchased Enzo Life Science International, Inc
Test: MMP inhibition assay (MMP Inhibitor Profiling Kit, thiopeptide substrate), MMP-13
Assay type: biochemical
Details: catalytic domain, 37 °C, pH 7.5
Experimental: MMP activity measurements were performed using an MMP Inhibitor Profiling Kit purchased from Enzo Life Science International, Inc. (Farmingdale, NY, USA), and following the manufacturer’s protocol with slight modifications. […] Hydrolysis of this bond by MMPs produces a sulfhydryl group that reacts with DTNB to form 2-nitro-5-thiobenzoic acid, which was detected by its absorbance at 414 nm (microplate photometer 90 Thermo Scientific Multiscan FC). […]
The following compounds are listed with their measured IC50 values.

compound	readout-relation	IC50 (nM)
O=C(NO)[C@@H](Cc1ccccc1)NS(=O)(=O)c1ccc(-n2cc(CCN3C(=O)c4cc(Br)c(Br)cc4C3=O)nn2)cc1 [Compound 10b]	=	46
O=C(O)[C@H](Cc1ccccc1)NS(=O)(=O)c1ccc(-n2cc(CCn3nc4ccccc4n3)nn2)cc1	>	100
O=C(NO)[C@@H](Cc1ccccc1)NS(=O)(=O)c1ccc(-n2cc(CCN3C(=O)c4c(Br)c(Br)c(Br)c(Br)c4C3=O)nn2)cc1 [Compound 10c]	=	61
O=C(O)[C@@H](Cc1ccccc1)NS(=O)(=O)c1ccc(-n2cc(CCn3nc4c(Br)c(Br)c(Br)c(Br)c4n3)nn2)cc1	>	100
O=C(O)[C@@H](Cc1ccccc1)NS(=O)(=O)c1ccc(-n2cc(CCn3nc4ccccc4n3)nn2)cc1	>	100

====

target: MMP-14 (Homo sapiens, UniProt P50281); construct: the catalytic domains of the corresponding MMP were incubated in triplicate; purchased Enzo Life Science International, Inc; experiment: MMP inhibition assay (MMP Inhibitor Profiling Kit, thiopeptide substrate), MMP-14; assay type: biochemical; settings: panel of MMPs
pIC50: −log10 of the molar value.

compound	experimental-target	pIC50
O=C(NO)[C@@H](Cc1ccccc1)NS(=O)(=O)c1ccc(-n2cc(CCn3nc4ccccc4n3)nn2)cc1 [Compound 9a]	MMP-14 (Homo sapiens, UniProt P50281)	< 6.00

====

target: UniProtKB P45452
pIC50: −log10 of the molar value.
experimental-endpoint: pIC50

structure-notation	result-number
O=C(NO)[C@@H](Cc1ccccc1)NS(=O)(=O)c1ccc(-c2ccccc2)cc1	8.69

====

biological target: MMP-3 (Homo sapiens); construct: the catalytic domains of the corresponding MMP were incubated in triplicate; purchased Enzo Life Science International, Inc; experiment: MMP inhibition assay (MMP Inhibitor Profiling Kit, thiopeptide substrate), MMP-3; type: biochemical; details: panel of MMPs
Sequence (P08254 100-272 limits assumed): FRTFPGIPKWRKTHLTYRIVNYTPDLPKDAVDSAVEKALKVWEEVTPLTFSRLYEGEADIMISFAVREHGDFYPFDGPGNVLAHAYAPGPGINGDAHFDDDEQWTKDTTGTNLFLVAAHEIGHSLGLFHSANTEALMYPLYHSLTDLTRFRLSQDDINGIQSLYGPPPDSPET

compound	experimental-target	IC50 / nM
O=C(NO)[C@@H](Cc1ccccc1)NS(=O)(=O)c1ccc(-n2cc(CCn3nc4ccccc4n3)nn2)cc1 [Compound 9a]	MMP-3 (Homo sapiens)	31

====

assay: Thermodynamic solubility (shake flask method); assay type: physicochemical; conditions: phosphate buffer, aqueous buffer, thermodynamic from solid; PBS pH 7.4, shake flask, room temperature; read-out: Experimental Water Solubility LogS (converted)
Overview of recorded solubility for various compounds
experimental-endpoint: solubility (µM)

compound	result-number
O=C(NO)[C@@H](Cc1ccccc1)NS(=O)(=O)c1ccc(-n2cc(CCn3nc4ccccc4n3)nn2)cc1	9.77
O=C(NO)[C@@H](Cc1ccccc1)NS(=O)(=O)c1ccc(-n2cc(CCN3C(=O)c4ccc(Br)cc4C3=O)nn2)cc1 [Compound 10d]	2.29
O=C(NO)[C@@H](Cc1ccccc1)NS(=O)(=O)c1ccc(-n2cc(CCN3C(=O)c4c(Br)c(Br)c(Br)c(Br)c4C3=O)nn2)cc1 [Compound 10c]	0.141
Cc1ccc2c(c1)C(=O)N(CCc1cn(-c3ccc(S(=O)(=O)N[C@H](Cc4ccccc4)C(=O)NO)cc3)nn1)C2=O [Compound 10e]	8.32
O=C(NO)C1(S(=O)(=O)c2ccc(-n3cc(CCn4nc5c(Br)c(Br)c(Br)c(Br)c5n4)nn3)cc2)CCOCC1	2.4
O=C(NO)[C@@H](Cc1ccccc1)NS(=O)(=O)c1ccc(-n2cc(CCn3nc4c(Br)c(Br)c(Br)c(Br)c4n3)nn2)cc1	2.88
O=C(NO)[C@@H](Cc1ccccc1)NS(=O)(=O)c1ccc(-n2cc(CCN3C(=O)c4ccccc4C3=O)nn2)cc1 [Compound 10a]	2.69
O=C(NO)C1(S(=O)(=O)c2ccc(-n3cc(CCn4nc5ccccc5n4)nn3)cc2)CCOCC1	33.9
O=C(NO)[C@@H](Cc1ccccc1)NS(=O)(=O)c1ccc(-n2cc(CCN3C(=O)c4cc(Br)c(Br)cc4C3=O)nn2)cc1 [Compound 10b]	3.63
